Assay read-out Ki; system under study: 5-hydroxytryptamine receptor 1A (Rattus norvegicus, UniProt P19327).
Sequence (P19327 whole entry): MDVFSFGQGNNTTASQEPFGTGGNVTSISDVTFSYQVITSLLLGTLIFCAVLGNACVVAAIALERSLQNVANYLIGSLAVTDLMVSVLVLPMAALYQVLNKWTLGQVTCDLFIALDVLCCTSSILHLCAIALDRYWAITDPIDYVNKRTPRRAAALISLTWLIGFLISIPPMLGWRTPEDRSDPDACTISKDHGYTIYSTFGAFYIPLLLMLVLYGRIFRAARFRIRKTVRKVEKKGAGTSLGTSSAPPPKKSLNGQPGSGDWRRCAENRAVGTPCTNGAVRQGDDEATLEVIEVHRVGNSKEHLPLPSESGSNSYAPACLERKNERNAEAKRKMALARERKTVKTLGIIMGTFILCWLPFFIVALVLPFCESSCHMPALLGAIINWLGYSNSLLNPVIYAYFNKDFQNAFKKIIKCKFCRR
Numbers only, in nM.

For each of the compounds below, note its Ki.
1. O=C1CC(=C2c3ccccc3-c3ccccc32)C(=O)N1CCCCN1CCN(c2cccc(Cl)c2)CC1
2. O=C1CC(=C(c2ccccc2)c2ccccc2)C(=O)N1CCCCN1CCN(c2cccc(C(F)(F)F)c2)CC1
3. COc1ccccc1N1CCN(C/C=C\CN2C(=O)CC(=C(c3ccccc3)c3ccccc3)C2=O)CC1
4. COc1ccccc1N1CCN(C/C=C/CN2C(=O)CC(=C(c3ccccc3)c3ccccc3)C2=O)CC1

Ans.
1: 72; 2: 15; 3: 237; 4: 27

---

Molecular target: Adrenergic receptor alpha-1 (Rattus norvegicus, UniProt P15823+P23944+P43140)
Sequence (P15823 whole entry): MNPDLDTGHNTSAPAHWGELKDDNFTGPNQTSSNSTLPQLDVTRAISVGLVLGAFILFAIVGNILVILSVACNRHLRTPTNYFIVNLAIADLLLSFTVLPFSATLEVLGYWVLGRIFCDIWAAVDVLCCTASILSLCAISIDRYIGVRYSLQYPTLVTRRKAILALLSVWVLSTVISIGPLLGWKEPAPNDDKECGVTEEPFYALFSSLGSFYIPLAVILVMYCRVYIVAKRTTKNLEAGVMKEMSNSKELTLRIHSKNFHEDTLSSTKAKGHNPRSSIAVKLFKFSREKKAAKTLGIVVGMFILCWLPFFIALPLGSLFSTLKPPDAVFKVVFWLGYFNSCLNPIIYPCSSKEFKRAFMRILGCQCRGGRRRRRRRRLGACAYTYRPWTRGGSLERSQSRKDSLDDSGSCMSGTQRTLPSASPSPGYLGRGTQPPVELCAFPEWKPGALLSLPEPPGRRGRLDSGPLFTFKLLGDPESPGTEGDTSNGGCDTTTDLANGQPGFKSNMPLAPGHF
Sequence (P23944 whole entry): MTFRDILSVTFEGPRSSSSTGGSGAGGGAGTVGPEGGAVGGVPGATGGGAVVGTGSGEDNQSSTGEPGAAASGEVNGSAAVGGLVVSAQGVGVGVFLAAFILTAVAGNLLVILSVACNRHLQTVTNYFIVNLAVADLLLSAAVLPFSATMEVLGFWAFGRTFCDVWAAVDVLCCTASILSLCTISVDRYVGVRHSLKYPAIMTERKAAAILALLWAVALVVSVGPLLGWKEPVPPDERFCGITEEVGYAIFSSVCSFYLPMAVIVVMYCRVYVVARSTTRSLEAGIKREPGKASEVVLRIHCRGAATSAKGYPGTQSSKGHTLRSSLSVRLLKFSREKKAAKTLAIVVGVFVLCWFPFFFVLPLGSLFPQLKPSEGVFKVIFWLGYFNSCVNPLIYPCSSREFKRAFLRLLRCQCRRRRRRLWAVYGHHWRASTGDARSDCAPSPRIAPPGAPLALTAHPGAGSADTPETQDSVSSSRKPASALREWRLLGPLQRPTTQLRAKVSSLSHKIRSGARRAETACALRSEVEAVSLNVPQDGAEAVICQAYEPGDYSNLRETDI
Sequence (P43140 whole entry): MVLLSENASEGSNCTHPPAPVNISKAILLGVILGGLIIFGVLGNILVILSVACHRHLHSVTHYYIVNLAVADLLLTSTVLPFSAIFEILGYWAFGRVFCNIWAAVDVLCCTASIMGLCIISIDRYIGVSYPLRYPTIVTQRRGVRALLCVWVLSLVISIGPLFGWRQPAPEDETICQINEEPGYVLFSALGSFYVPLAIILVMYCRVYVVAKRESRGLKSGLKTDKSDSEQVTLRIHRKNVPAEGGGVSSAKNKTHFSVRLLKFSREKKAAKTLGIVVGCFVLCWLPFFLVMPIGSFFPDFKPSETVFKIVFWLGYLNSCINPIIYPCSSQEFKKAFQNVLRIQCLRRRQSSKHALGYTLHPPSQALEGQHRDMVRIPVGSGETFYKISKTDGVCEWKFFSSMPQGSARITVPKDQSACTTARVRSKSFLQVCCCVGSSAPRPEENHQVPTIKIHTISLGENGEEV
Experiment: In vitro binding affinity was evaluated on alpha-1 adrenergic receptor from rat cerebral cortex by using [3H]prazosin as radioligand
Format: tissue-based
MEASURED ENDPOINT: Ki

Below, each entry is followed by its recorded Ki result.
- COc1ccccc1N1CCN(CN2C(=O)CC(=C3c4ccccc4-c4ccccc43)C2=O)CC1: > 1 µM
- O=C1CC(=C2c3ccccc3-c3ccccc32)C(=O)N1CN1CCN(c2ccc(F)cc2)CC1: > 1 µM
- O=C1CC(=C2c3ccccc3-c3ccccc32)C(=O)N1CCCN1CCN(c2cccc(Cl)c2)CC1: > 10 µM

For each listed entry, give its Ki.
1. O=C1CC(=C2c3ccccc3-c3ccccc32)C(=O)N1CN1CCN(c2ccccc2)CC1
2. O=C1CC(=C2c3ccccc3-c3ccccc32)C(=O)N1CCCN1CCN(c2cccc(C(F)(F)F)c2)CC1
3. O=C1CC(=C2c3ccccc3-c3ccccc32)C(=O)N1CCN1CCN(c2cccc(C(F)(F)F)c2)CC1

Ans.
["> 1 µM", "> 10 µM", "> 10 µM"]

---

target: D(2) dopamine receptor (Rattus norvegicus, UniProt P61169); experiment: In vitro binding affinity towards Dopamine receptor D2 of rat striatal membranes using [3H]- raclopride
Sequence (P61169 whole entry): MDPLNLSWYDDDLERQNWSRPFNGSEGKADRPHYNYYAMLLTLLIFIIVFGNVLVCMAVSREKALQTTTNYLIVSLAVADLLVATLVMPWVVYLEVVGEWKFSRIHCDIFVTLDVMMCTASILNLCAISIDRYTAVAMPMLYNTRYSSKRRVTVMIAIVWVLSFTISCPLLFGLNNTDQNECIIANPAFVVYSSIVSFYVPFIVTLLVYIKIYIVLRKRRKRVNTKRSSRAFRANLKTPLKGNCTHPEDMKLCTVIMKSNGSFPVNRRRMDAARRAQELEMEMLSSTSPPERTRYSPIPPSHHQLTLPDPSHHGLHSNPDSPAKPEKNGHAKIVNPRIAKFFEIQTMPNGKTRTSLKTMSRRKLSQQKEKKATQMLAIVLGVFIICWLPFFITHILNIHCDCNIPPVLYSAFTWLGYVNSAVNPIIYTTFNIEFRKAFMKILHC
pKi: −log10 of the molar value.
Exercise: state measured pKi for each of the compounds provided.

• COc1ccccc1N1CCN(CCN2C(=O)CC(=C3c4ccccc4-c4ccccc43)C2=O)CC1 = < 5.00
• COc1ccccc1N1CCN(CN2C(=O)CC(=C3c4ccccc4-c4ccccc43)C2=O)CC1 = < 5.00
• COc1ccccc1N1CCN(CCCCN2C(=O)CC(=C3c4ccccc4-c4ccccc43)C2=O)CC1 = < 5.00
• O=C1CC(=C2c3ccccc3-c3ccccc32)C(=O)N1CCCN1CCN(c2ccccc2)CC1 = < 6.00

Proceed to the following item.
Qu. Fill in: pKi of O=C1CC(=C2c3ccccc3-c3ccccc32)C(=O)N1CCN1CCN(c2ccccc2)CC1 is ___
Ans. < 5.00

---

pKi: −log10 of the molar value.
Record set of pKi for target or system 5-hydroxytryptamine receptor 1A (Rattus norvegicus).

Here is how some compounds turned out for pKi.
- O=C1CC(=C2c3ccccc3-c3ccccc32)C(=O)N1CCCN1CCN(c2cccc(Cl)c2)CC1: < 6.00
- O=C1CC(=C2c3ccccc3-c3ccccc32)C(=O)N1CCCCN1CCN(c2cccc(C(F)(F)F)c2)CC1: < 6.00
- O=C1CC(=C2c3ccccc3-c3ccccc32)C(=O)N1CCCCN1CCN(c2ccc(F)cc2)CC1: < 5.00

Hey, quick one: what's pKi for each of these?
1. O=C1CC(=C2c3ccccc3-c3ccccc32)C(=O)N1CCN1CCN(c2ccccc2)CC1
2. O=C1CC(=C2c3ccccc3-c3ccccc32)C(=O)N1CN1CCN(c2ccc(F)cc2)CC1

Ans.
["< 5.00", "< 6.00"]
